Listing of recorded inhibition by entry.
# Target Or Test System: Orexin receptor type 2 (Homo sapiens) (UniProt O43614)
# Sequence (whole entry): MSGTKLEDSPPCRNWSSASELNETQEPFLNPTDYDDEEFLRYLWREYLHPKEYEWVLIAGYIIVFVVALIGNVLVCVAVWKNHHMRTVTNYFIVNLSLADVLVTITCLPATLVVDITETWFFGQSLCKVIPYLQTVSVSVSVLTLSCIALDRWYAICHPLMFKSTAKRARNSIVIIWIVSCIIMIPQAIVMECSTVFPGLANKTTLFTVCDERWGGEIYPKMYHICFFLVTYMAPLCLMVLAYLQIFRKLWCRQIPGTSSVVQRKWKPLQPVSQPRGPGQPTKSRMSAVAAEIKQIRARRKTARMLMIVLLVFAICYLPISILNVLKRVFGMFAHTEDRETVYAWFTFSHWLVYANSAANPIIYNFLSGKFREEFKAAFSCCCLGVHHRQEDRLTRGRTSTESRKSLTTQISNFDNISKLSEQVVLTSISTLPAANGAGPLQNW
# Measurement Notes: Antagonist activity at OX2 receptor (unknown origin) expressed in RD-HGA16 cells assessed as inhibition orexin A-induced calcium mobilization at 10 uM by fluorescence assay
# Assay type: functional, cell-based
Measured Metric: inhibition

INSERT INTO assay_data (compound, measured_result) VALUES
  ('COc1ccc(CC2c3cc(OCCCCN(C)C)c(OC)cc3CCN2CC(=O)NCc2ccccc2)cc1OC (stereo not drawn)', '< 30%'),
  ('COc1ccc(CC2c3cc(OS(=O)(=O)c4ccc(C)cc4)c(OC)cc3CCN2CC(=O)NCc2ccccc2)cc1OC (stereo not drawn)', '< 30%'),
  ('COc1ccc(CC2c3cc(OCc4ccccn4)c(OC)cc3CCN2CC(=O)NCc2ccccc2)cc1OC (stereo not drawn)', '< 30%'),
  ('CNC(=O)CNC(=O)CN1CCc2cc(OC)c(OC)cc2C1Cc1ccc(OC)c(OC)c1 (stereo not drawn)', '< 30%'),
  ('COC(=O)CNC(=O)CN1CCc2cc(OC)c(OC)cc2C1Cc1ccc(OC)c(OC)c1 (stereo not drawn)', '< 30%'),
  ('COc1ccc(CC2c3cc(OC)c(OC)cc3CCN2CC(=O)N2CCC(c3ccccc3)CC2)cc1OC (stereo not drawn)', '< 30%'),
  ('COc1ccc(CC2c3cc(OC)c(OC)cc3CCN2CC(=O)NCCCc2ccccc2)cc1OC (stereo not drawn)', '< 30%'),
  ('COc1ccc(CC2c3cc(OC)c(OC)cc3CCN2CC(=O)Nc2ccc(-c3ccccc3)cc2)cc1OC (stereo not drawn)', '< 30%'),
  ('COc1ccc(CC2c3cc(OCCN(C)C)c(OC)cc3CCN2CC(=O)NCc2ccccc2)cc1OC (stereo not drawn)', '< 30%'),
  ('COc1ccc(CC2c3cc(OCc4cccnc4)c(OC)cc3CCN2CC(=O)NCc2ccccc2)cc1OC (stereo not drawn)', '< 30%'),
  ('COc1ccc(CC2c3cc(OCCN4CCCCC4)c(OC)cc3CCN2CC(=O)NCc2ccccc2)cc1OC (stereo not drawn)', '< 30%'),
  ('COc1ccc(CC2c3cc(OC)c(OC)cc3CCN2CC(=O)Nc2cc(C)nc3ccccc23)cc1OC (stereo not drawn)', '< 30%'),
  ('COc1ccc(CC2c3cc(OC)c(OC)cc3CCN2CC(=O)Nc2cccc3ccccc23)cc1OC (stereo not drawn)', '< 30%'),
  ('COc1ccc(CC2c3cc(OC)c(OC)cc3CCN2CC(=O)N2CCN(c3ccccc3)CC2)cc1OC (stereo not drawn)', '< 30%'),
  ('COc1ccc(CC2c3cc(OCC4CCCCC4)c(OC)cc3CCN2CC(=O)NCc2ccccc2)cc1OC (stereo not drawn)', '< 30%'),
  ('COc1ccc(CC2c3cc(OC)c(OC)cc3CCN2CC(=O)NCCCN(C)C)cc1OC (stereo not drawn)', '< 30%'),
  ('COc1ccc(CC2c3cc(OC)c(OC)cc3CCN2CC(=O)NCc2ccc(NC(C)=O)cc2)cc1OC (stereo not drawn)', '< 30%'),
  ('COc1ccc(CC2c3cc(OC)c(OC)cc3CCN2CC(=O)NCc2ccncc2)cc1OC (stereo not drawn)', '< 30%');
